Test Target: Phosphatidylinositol 4,5-bisphosphate 3-kinase catalytic subunit alpha isoform (Homo sapiens)
Sequence (P42336 whole entry, canonical isoform): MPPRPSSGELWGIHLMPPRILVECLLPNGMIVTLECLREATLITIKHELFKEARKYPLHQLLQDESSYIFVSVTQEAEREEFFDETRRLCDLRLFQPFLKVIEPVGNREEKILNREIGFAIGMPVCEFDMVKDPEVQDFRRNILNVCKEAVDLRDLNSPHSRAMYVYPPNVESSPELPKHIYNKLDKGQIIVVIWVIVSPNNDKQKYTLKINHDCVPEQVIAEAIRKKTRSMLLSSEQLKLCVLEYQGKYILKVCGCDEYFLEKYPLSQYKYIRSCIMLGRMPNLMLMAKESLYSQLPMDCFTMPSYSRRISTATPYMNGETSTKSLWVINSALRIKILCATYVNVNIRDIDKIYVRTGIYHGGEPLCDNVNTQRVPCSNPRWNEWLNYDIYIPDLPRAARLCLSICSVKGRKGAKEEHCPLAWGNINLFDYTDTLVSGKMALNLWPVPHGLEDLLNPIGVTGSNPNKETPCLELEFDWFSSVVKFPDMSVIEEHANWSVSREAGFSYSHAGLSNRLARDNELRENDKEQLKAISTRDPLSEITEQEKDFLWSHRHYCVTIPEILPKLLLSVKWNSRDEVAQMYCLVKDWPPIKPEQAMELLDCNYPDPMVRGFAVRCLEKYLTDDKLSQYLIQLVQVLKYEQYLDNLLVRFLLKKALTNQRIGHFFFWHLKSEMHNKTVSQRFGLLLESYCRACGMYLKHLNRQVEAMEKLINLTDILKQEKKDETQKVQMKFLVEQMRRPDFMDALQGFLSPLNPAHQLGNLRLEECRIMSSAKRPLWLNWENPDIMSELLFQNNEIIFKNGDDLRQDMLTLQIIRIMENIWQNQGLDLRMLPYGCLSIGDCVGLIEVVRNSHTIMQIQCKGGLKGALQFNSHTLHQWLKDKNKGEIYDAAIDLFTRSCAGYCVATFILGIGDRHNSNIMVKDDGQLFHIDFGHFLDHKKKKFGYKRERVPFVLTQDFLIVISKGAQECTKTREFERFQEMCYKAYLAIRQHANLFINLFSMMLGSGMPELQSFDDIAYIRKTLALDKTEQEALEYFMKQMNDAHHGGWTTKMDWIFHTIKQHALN
Assay Text: Inhibition of PI3K-alpha (unknown origin)
Metric: pIC50
Answers are plain numbers, as −log10 of the molar value.

Ask | Could you tell me which pIC50 is on file for CN(C)C(=O)C1CCC(Oc2nc(-c3cccc4[nH]ncc34)nc(N3CCOCC3)n2)CC1 (stereo unspecified) ?
Reply | 7.22

* * *

Would you kindly list IC50 for each of these molecules?
System: MCF7
Assay Text: Inhibition of cell viability in human MCF7 cells incubated for 48 hrs by MTT assay
Type: functional, cell-based
Run Parameters: MCF7, 48 h
Give bare numbers, in nM.

Molecule	Metric	Test Value
CN(C)c1nc(Cl)nc(NC2=NN(c3ccc(Br)cc3)C(c3ccc(C(F)(F)F)cc3)C2)n1 (configuration not stated)	IC50	12.8

Ask | Can you share its IC50? I mean this molecule: CN(C)c1nc(Cl)nc(NC2=NN(c3ccc(C(F)(F)F)cc3)C(c3ccc(C(F)(F)F)cc3)C2)n1 (configuration not stated)
Reply | 70.7

* * *

Test Target: Epidermal growth factor receptor (Homo sapiens, UniProt P00533)
Sequence (P00533 whole entry): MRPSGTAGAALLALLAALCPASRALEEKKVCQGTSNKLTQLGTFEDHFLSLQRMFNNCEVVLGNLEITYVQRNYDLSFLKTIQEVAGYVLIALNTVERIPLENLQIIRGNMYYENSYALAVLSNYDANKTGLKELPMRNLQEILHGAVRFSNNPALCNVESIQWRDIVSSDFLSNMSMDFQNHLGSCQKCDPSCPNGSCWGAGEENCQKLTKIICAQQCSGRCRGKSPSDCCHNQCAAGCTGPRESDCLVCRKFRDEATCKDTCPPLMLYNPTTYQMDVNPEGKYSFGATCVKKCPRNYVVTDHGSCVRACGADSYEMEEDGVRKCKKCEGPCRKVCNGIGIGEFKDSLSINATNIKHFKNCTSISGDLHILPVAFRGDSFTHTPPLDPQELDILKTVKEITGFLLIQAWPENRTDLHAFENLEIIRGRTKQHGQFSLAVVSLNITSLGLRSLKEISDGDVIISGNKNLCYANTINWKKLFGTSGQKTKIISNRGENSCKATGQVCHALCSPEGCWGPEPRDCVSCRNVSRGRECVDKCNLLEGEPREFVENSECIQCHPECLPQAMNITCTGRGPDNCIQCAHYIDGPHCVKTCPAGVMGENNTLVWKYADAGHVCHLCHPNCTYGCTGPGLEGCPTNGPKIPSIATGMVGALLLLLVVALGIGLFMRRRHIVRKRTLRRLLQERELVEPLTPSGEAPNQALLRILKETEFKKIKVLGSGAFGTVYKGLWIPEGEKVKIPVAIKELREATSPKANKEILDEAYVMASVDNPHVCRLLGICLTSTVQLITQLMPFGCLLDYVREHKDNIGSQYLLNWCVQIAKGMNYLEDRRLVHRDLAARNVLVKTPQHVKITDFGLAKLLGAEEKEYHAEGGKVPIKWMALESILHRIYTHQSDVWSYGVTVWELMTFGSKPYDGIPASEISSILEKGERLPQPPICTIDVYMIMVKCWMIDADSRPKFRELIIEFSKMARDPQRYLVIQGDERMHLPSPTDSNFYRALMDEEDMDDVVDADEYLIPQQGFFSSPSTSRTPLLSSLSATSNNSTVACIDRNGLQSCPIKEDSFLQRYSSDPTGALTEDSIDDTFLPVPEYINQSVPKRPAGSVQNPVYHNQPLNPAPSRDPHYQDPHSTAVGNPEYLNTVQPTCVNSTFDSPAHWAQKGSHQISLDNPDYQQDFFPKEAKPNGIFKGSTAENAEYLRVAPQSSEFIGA
Assay Text: Inhibition of EGFR (unknown origin) using Poly (Glu, Tyr) as substrate at 10 uM incubated for 40 mins in presence of ATP by Kinase-Glo Plus luminescence kinase assay relative to control
So I've got a bunch of compounds here, and I need their inhibition values.
One number for each entry, in %.

State recorded inhibition for all listed compounds.
1. CCOC(=O)C1=CN(c2nc(Nc3cccc(F)c3)nc(Nc3cccc(F)c3)n2)C(=S)NC1c1ccccc1OC (centres undefined)
2. CCOC(=O)C1=CN(c2nc(Nc3cccc(F)c3)nc(Nc3cccc(F)c3)n2)C(=S)NC1c1ccc(F)cc1 (centres undefined)
3. O=[N+]([O-])c1ccc(Nc2nc(NC(=S)NNc3ccnc4ccccc34)nc(Nc3ccc([N+](=O)[O-])cc3)n2)cc1
4. CCN(CC)c1nc(NC(=S)NNc2ccnc3ccccc23)nc(N(CC)CC)n1

Reply |
94.3
96.4
96.3
90.5

* * *

Test Target: Carbonic anhydrase 9 (Homo sapiens)
Metric: pKi
Numbers only, as −log10 of the molar value.

Ask | Report pKi for `NS(=O)(=O)c1ccc(CNc2nc(Cl)nc(Nc3ccc(O)cc3)n2)cc1` tested on Carbonic anhydrase 9 (Homo sapiens).
Reply | 9.40

* * *

Test Target: Epidermal growth factor receptor (Homo sapiens, UniProt P00533)
Assay Text: Inhibition of EGFR (unknown origin) by ELISA
Metric: IC50 (nM)
Give bare numbers, in nM.

Give IC50 for all molecules that follow.
1. CN(C)c1nc(Cl)nc(NC2=NN(c3ccc(C(F)(F)F)cc3)C(c3ccc(C(F)(F)F)cc3)C2)n1 (configuration not stated)
2. CN(C)c1nc(Cl)nc(NC2=NN(c3ccc(Br)cc3)C(c3ccc(C(F)(F)F)cc3)C2)n1 (configuration not stated)

Reply |
1: 229; 2: 287

* * *

Test Target: Serine/threonine-protein kinase mTOR (Homo sapiens)
Metric: IC50 (nM)
One number for each entry, in nM.

Ask | Item: `CS(=O)(=O)N1CCN(Cc2ccc(-c3nc(-c4cnc(N)nc4)nc(N4CCOCC4)n3)s2)CC1` Test system: Serine/threonine-protein kinase mTOR (Homo sapiens) Read-out: IC50 Value: ?
Reply | 48

* * *

Tested on: MCF7
Assay Text: Antitumor activity against human MCF7 cells by MTT assay
I'd be grateful if you could share measured pIC50 for these entries.
Give bare numbers, as −log10 of the molar value.

Mol Smiles	Test Value
Nc1ncc(-c2nc(-c3ccc(CN4CCOCC4)s3)nc(N3CCOCC3)n2)cn1	5.58

API: the following record is the query input.
Ask | Item under review: `CS(=O)(=O)N1CCN(Cc2ccc(-c3nc(-c4cnc(N)nc4)nc(N4CCOCC4)n3)s2)CC1` . Reported pIC50?
Reply | 5.90
